assay comment: self-splicing fitness, log relative to wild type (ln ratio); higher = more splicing; Tetrahymena group I intron in knt gene, E. coli kanamycin selection, DiMSum; sequences stand for … in CUCUCU…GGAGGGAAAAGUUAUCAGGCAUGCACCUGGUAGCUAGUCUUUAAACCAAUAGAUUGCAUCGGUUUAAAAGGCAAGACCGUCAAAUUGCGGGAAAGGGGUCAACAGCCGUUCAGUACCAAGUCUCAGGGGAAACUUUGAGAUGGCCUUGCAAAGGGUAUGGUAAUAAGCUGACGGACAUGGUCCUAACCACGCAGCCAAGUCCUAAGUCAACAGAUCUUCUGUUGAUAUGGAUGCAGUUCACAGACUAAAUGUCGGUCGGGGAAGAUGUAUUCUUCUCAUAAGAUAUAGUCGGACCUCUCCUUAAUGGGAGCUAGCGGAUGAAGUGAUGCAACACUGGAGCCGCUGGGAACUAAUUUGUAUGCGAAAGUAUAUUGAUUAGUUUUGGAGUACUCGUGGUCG;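 note: selection with 25 µg/mL kanamycin versus none on LB agar overnight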
condition: 30 °C
# if value of self-splicing fitness (ln) reaches -2, tag fulfilled; if it stays below, tag not fulfilled

1) GCUAAGCAAUAUUACGCGGU
not fulfilled
2) AUACAGCAAUAUUACGUCUC
not fulfilled
3) AUCUAGCAAUAUUACGGGGC
not fulfilled
4) AGCUAGCAAUAUUACGUUUG
not fulfilled
5) UAUGAGCAAUAUUACGAUUA
fulfilled
6) AGGCAGCAAUAUUACGGAAC
not fulfilled
7) GUGUAGCAAUAUUACGGUAU
not fulfilled
8) CUUGAGCAAUAUUACGGGAU
not fulfilled
9) AGCGAGCAAUAUUACGAGCG
fulfilled
10) GGUGAGCAAUAUUACGUCAA
not fulfilled
11) UAUUAGCAAUAUUACGGACG
fulfilled
12) GCAAAGCAAUAUUACGCAUG
not fulfilled
13) GGCCAGCAAUAUUACGUAAU
fulfilled
14) AAAUAGCAAUAUUACGGCCC
fulfilled
15) UGCUAGCAAUAUUACGCGGU
not fulfilled
16) CCUAAGCAAUAUUACGAACU
not fulfilled
17) CGCAAGCAAUAUUACGCAAA
fulfilled
18) UUGGAGCAAUAUUACGUUCA
not fulfilled
19) CAGAAGCAAUAUUACGUGAA
not fulfilled
